The measurements presented in this section are drawn from the antibiotic and cytotoxicity screens of Wong et al. (2023).

- Test system: HSkMC (human skeletal muscle cells)
- Protocol notes: cytotoxicity call (relative viability < 0.9)
- Measurement setup: 10 µM
Out of some 39,000 compounds screened, about 1,500 (3.8%) were called active. This excerpt belongs to a sample that is enriched for actives.
Possible outcomes: active, inactive

{"columns": ["Smiles representation", "Study target", "Qualitative label"],
 "data": [
  ["C[C@@H]1CN([C@@H](C)CO)C(=O)c2cc(NS(=O)(=O)c3ccc(F)cc3)ccc2O[C@H]1CN(C)Cc1ccc(-c2ccccc2)cc1", "HSkMC", "inactive"],
  ["C[C@@H]1CCCCO[C@H](CN(C)Cc2ccc3c(c2)OCO3)[C@H](C)CN([C@@H](C)CO)C(=O)c2cc(NC(=O)Nc3ccc(C(F)(F)F)cc3)ccc2O1", "HSkMC", "active"],
  ["C[C@@H]1CN([C@@H](C)CO)C(=O)c2cc(NS(=O)(=O)c3ccc(F)cc3)ccc2O[C@@H]1CN(C)Cc1ccc(-c2ccccc2)cc1", "HSkMC", "active"],
  ["C[C@@H]1CCCCO[C@H](CN(C)Cc2ccc3c(c2)OCO3)[C@@H](C)CN([C@@H](C)CO)C(=O)c2cc(NC(=O)Nc3ccc(C(F)(F)F)cc3)ccc2O1", "HSkMC", "active"],
  ["C=CC(=O)NCCCCNC(=O)C=C", "HSkMC", "inactive"],
  ["CS(C)(=O)=O", "HSkMC", "inactive"],
  ["Cc1noc(C)c1S(=O)(=O)Nc1ccc2c(c1)C(=O)N([C@H](C)CO)C[C@@H](C)[C@@H](CN(C)C)OCCCC[C@H](C)O2", "HSkMC", "inactive"],
  ["C[C@@H]1CN([C@@H](C)CO)C(=O)Cc2cc(NC(=O)Nc3cccc4ccccc34)ccc2O[C@@H]1CN(C)Cc1ccncc1", "HSkMC", "inactive"],
  ["Oc1ccc([C@@H]2C=CCC2)cc1", "HSkMC", "inactive"]
]}
